As shown below, each of these compounds has a reported Max Em value.
Assay: Spectroscopic analysis: absorbance, emission and quantum yield of Nile Red derivatives
Assay type: physicochemical
Conditions: in DMSO
Numeric answer only, unit nm assumed.

Sample answers from the record:
1) CCN(CC)c1ccc2nc3c4cc(-c5ccc(N)cc5)ccc4c(=O)cc-3oc2c1: 635
2) CCN(CC)c1ccc2nc3c4cc(C#Cc5ccc(C=O)c(S(C)(=O)=O)c5)ccc4c(=O)cc-3oc2c1: 640
3) CCN(CC)c1ccc2nc3c4cc(C#Cc5cccc(C=O)c5)ccc4c(=O)cc-3oc2c1: 640

Q: Value lookup for Max Em; key = CCN(CC)c1ccc2nc3c4ccc(-c5ccc(C#N)cc5)cc4c(=O)cc-3oc2c1
A: 640

Q: Value lookup for Max Em; key = CCN(CC)c1ccc2nc3c4ccccc4c(=O)cc-3oc2c1
A: 630

Q: Value lookup for Max Em; key = CCN(CC)c1ccc2nc3c4cc(C#Cc5cccc(N)c5)ccc4c(=O)cc-3oc2c1
A: 640

Q: Value lookup for Max Em; key = CCN(CC)c1ccc2nc3c4cc(-c5ccc(C#N)cc5)ccc4c(=O)cc-3oc2c1
A: 635

Q: Value lookup for Max Em; key = CCN(CC)c1ccc2nc3c4cc(C#Cc5cc(C=O)ccc5OC)ccc4c(=O)cc-3oc2c1
A: 640

Q: Value lookup for Max Em; key = CCN(CC)c1ccc2nc3c4ccc(-c5ccc(N)cc5)cc4c(=O)cc-3oc2c1
A: 635

* * *

As shown below, each of these compounds has a reported QY (quantum yield) value.
Test: Spectroscopic analysis: absorbance, emission and quantum yield of Nile Red derivatives
Assay type: physicochemical
Settings: in DMSO; standard Rhodamine B
Please give the numeric answer without any surrounding text.

1. CCN(CC)c1ccc2nc3c4cc(C#Cc5cc(C=O)ccc5OC)ccc4c(=O)cc-3oc2c1: 0.48
2. CCN(CC)c1ccc2nc3c4cc(C#Cc5cccc(N)c5)ccc4c(=O)cc-3oc2c1: 0.14
3. CCN(CC)c1ccc2nc3c4cc(C#Cc5cccc(C=O)c5)ccc4c(=O)cc-3oc2c1: 0.48
4. CCN(CC)c1ccc2nc3c4ccc(-c5ccc(C#N)cc5)cc4c(=O)cc-3oc2c1: 0.54
5. CCN(CC)c1ccc2nc3c4cc(C#Cc5ccc(C=O)c(S(C)(=O)=O)c5)ccc4c(=O)cc-3oc2c1: 0.45
6. CCN(CC)c1ccc2nc3c4cc(-c5ccc(N)cc5)ccc4c(=O)cc-3oc2c1: 0.04

Q: Value lookup for QY (quantum yield); key = CCN(CC)c1ccc2nc3c4ccc(-c5ccc(N)cc5)cc4c(=O)cc-3oc2c1
A: 0.08

* * *

Assay: Spectroscopic analysis: absorbance, emission and quantum yield of Nile Red derivatives
Format: physicochemical
Details: in DMSO
As shown below, each of these compounds has a reported Stokes Shift value.
Param answer (str): number followed by unit.

Sample answers from the record:
1) CCN(CC)c1ccc2nc3c4ccc(-c5ccc(C#N)cc5)cc4c(=O)cc-3oc2c1: 80 nm
2) CCN(CC)c1ccc2nc3c4cc(C#Cc5ccc(C=O)c(S(C)(=O)=O)c5)ccc4c(=O)cc-3oc2c1: 70 nm
3) CCN(CC)c1ccc2nc3c4cc(-c5ccc(C#N)cc5)ccc4c(=O)cc-3oc2c1: 75 nm

Q: Value lookup for Stokes Shift; key = CCN(CC)c1ccc2nc3c4cc(C#Cc5cccc(N)c5)ccc4c(=O)cc-3oc2c1
A: 75 nm

Q: Value lookup for Stokes Shift; key = CCN(CC)c1ccc2nc3c4cc(-c5ccc(N)cc5)ccc4c(=O)cc-3oc2c1
A: 80 nm

Q: Value lookup for Stokes Shift; key = CCN(CC)c1ccc2nc3c4ccc(-c5ccc(N)cc5)cc4c(=O)cc-3oc2c1
A: 80 nm

Q: Value lookup for Stokes Shift; key = CCN(CC)c1ccc2nc3c4cc(C#Cc5cccc(C=O)c5)ccc4c(=O)cc-3oc2c1
A: 75 nm

Q: Value lookup for Stokes Shift; key = CCN(CC)c1ccc2nc3c4cc(C#Cc5cc(C=O)ccc5OC)ccc4c(=O)cc-3oc2c1
A: 75 nm

Reference source for all entries: patent US20210115000A1
